Target: Cysteinyl leukotriene receptor (Homo sapiens, UniProt Q9Y271+Q9NS75)
Assay: Inhibition of LTC4 induced smooth muscle contraction of guinea pig ileum
Assay type: functional, tissue-based, Cavia porcellus
Settings: target entry is the homologue from another species
Simple rule here: IC50 less than 100 nM is Satisfied, otherwise Not satisfied.

Task item: Please check: IC50 for CCCCOc1ccc(/C=C/C(=O)Nc2cccc3c2OC(c2nnn[nH]2)CO3)cc1 (centres undefined) , strictly under 100 nM or not?
Reply: Not satisfied

Task item: A record lists `CCCCCc1ccc(/C=C/C(=O)Nc2ccccc2CC(=O)O)cc1` . Is its IC50 below 100 nM?
Reply: Not satisfied

Task item: Determine whether this compound shows IC50 lower than 100 nM (ties excluded): CCCCCCCCCCc1ccc(/C=C/C(=O)Nc2cccc3c2OC(c2nnn[nH]2)CO3)cc1 (centres undefined)
Reply: Not satisfied

Task item: IC50 under 100 nM? Item: `CCCCCCCCc1ccc(C(=O)Nc2cccc3c(=O)cc(-c4nn[nH]n4)oc23)cc1`
Reply: Satisfied

Task item: is_below(IC50, 100 nM) for `CCC/C=C/COc1ccc(C(=O)Nc2cccc3c(=O)cc(-c4nn[nH]n4)oc23)cc1` ?
Reply: Satisfied

* * *

Target: Cysteinyl leukotriene receptor (Homo sapiens, UniProt Q9Y271+Q9NS75)
Test: Inhibition of LTC4 induced smooth muscle contraction of guinea pig ileum
Assay type: functional, tissue-based, Cavia porcellus
Settings: target entry is the homologue from another species
measure: log10 IC50 (log10 of the value in nM)
Scale: decimal log of IC50, IC50 in nM.

Take a look at these entries with their results.
# molecule, log10 IC50
rows = [
    ("CCCCCc1ccc(/C=C/C(=O)Nc2cccc3c(=O)cc(C(=O)O)oc23)cc1", 2.38),
    ("CCCCCCOc1ccc(C(=O)Nc2cccc3c(=O)cc(-c4nn[nH]n4)oc23)cc1", -0.07),
    ("CCCCC/C=C/COc1ccc(C(=O)Nc2cccc3c2OC(c2nnn[nH]2)CO3)cc1 (stereo not given)", 0.30),
]

Value of log10 IC50 reported for the molecule CCCCCc1ccc(/C=C/C(=O)Nc2cccc3c2OC(c2nnn[nH]2)C3)cc1 (stereo not given) is 3.84

For record CCCCCCCCOc1ccc(/C=C/C(=O)Nc2cccc3c2OC(c2nnn[nH]2)CO3)cc1 (stereo not given) the listed log10 IC50 is 2.33

Given item CCCCCCCc1ccc(C(=O)Nc2cccc3c2OC(c2nnn[nH]2)CO3)cc1 (stereo not given) , the value recorded as its log10 IC50 is 1.85

Form field log10 IC50, entry CCCCCCCCCc1ccc(C(=O)Nc2cccc3c2OC(c2nnn[nH]2)CO3)cc1 (stereo not given) : 2.20

Entry O=C(Nc1cccc2c1OC(c1nnn[nH]1)CO2)c1ccc(OCCc2ccccc2)cc1 (stereo not given) ; log10 IC50 = 1.79

* * *

# maps each entry to its IC50
Target: Cysteinyl leukotriene receptor (Homo sapiens, UniProt Q9Y271+Q9NS75)
Sequence (Q9Y271 whole entry): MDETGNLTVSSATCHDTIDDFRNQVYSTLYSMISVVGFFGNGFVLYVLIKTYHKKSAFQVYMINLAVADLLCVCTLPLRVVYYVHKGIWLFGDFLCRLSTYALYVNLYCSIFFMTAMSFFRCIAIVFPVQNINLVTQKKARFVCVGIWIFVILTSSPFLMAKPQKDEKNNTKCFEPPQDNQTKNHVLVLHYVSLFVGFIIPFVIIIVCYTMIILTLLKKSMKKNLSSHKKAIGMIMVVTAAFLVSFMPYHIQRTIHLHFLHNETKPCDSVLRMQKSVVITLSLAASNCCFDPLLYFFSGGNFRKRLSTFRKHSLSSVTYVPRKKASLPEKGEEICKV
Sequence (Q9NS75 whole entry): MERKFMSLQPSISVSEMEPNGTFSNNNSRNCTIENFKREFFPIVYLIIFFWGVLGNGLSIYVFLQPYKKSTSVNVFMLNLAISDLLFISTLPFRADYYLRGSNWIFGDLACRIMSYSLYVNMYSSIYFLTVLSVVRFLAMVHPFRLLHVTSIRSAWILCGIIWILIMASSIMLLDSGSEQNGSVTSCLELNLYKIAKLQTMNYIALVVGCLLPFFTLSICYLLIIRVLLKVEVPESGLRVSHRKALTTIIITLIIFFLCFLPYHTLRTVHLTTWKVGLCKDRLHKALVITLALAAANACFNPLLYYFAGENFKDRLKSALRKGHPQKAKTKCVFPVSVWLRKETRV
Assay: Inhibition of LTC4 induced smooth muscle contraction of guinea pig ileum
Format: functional, tissue-based, Cavia porcellus
Conditions: target entry is the homologue from another species
Return type: number; implicit unit µM.

# compound, uom, IC50
rows = [
    ("CCCOc1ccc(/C=C/C(=O)Nc2cccc3c2OC(c2nnn[nH]2)CO3)cc1 (centres undefined)", "µM", 0.66),
]

Item CCCCCCCCc1ccc(/C=C/C(=O)Nc2cccc3c2OC(c2nnn[nH]2)CO3)cc1 (centres undefined) ; assay system Cysteinyl leukotriene receptor (Homo sapiens, UniProt Q9Y271+Q9NS75); IC50 reported as 0.58

Tested system Cysteinyl leukotriene receptor (Homo sapiens, UniProt Q9Y271+Q9NS75); IC50 recorded for CCCOc1ccc(C(=O)Nc2cccc3c2OC(c2nnn[nH]2)CO3)cc1 (centres undefined) was 2.2

Here CCCCOc1ccc(C(=O)Nc2cccc3c2OC(c2nnn[nH]2)CO3)cc1 (centres undefined) was tested on Cysteinyl leukotriene receptor (Homo sapiens, UniProt Q9Y271+Q9NS75), and its IC50 came to 0.22

Value sought: IC50, system Cysteinyl leukotriene receptor (Homo sapiens, UniProt Q9Y271+Q9NS75), item CCCCCC/C=C/COc1ccc(C(=O)Nc2cccc3c2OC(c2nnn[nH]2)CO3)cc1 (centres undefined) . Result: 0.0052

Sample `CCCCCCOc1ccc(/C=C/C(=O)Nc2cccc3c(=O)cc(-c4nn[nH]n4)oc23)cc1` , system: Cysteinyl leukotriene receptor (Homo sapiens, UniProt Q9Y271+Q9NS75). Its IC50 is 0.018

Entry `CCCCCCCOc1ccc(/C=C/C(=O)Nc2cccc3c(=O)cc(-c4nn[nH]n4)oc23)cc1` , tested on Cysteinyl leukotriene receptor (Homo sapiens, UniProt Q9Y271+Q9NS75), has a reported IC50 of 0.14

Recorded IC50 for CCCCCCc1ccc(C(=O)Nc2cccc3c2OC(c2nnn[nH]2)CO3)cc1 (centres undefined) on Cysteinyl leukotriene receptor (Homo sapiens, UniProt Q9Y271+Q9NS75) was 0.21

For O=C(Nc1cccc2c1OC(c1nnn[nH]1)CO2)c1ccc(OCCCCc2ccccc2)cc1 (centres undefined) on Cysteinyl leukotriene receptor (Homo sapiens, UniProt Q9Y271+Q9NS75), measured IC50 was 0.00037

Entry CCCCCCCCCc1ccc(/C=C/C(=O)Nc2cccc3c2OC(c2nnn[nH]2)CO3)cc1 (centres undefined) ; assay system Cysteinyl leukotriene receptor (Homo sapiens, UniProt Q9Y271+Q9NS75); IC50 recorded at 3.2

Value sought: IC50, system Cysteinyl leukotriene receptor (Homo sapiens, UniProt Q9Y271+Q9NS75), item `CCCCCCCCOc1ccc(C(=O)Nc2cccc3c(=O)cc(-c4nn[nH]n4)oc23)cc1` . Result: 0.0055

Short answer on Cysteinyl leukotriene receptor (Homo sapiens, UniProt Q9Y271+Q9NS75) for CCCCCOc1ccc(/C=C/C(=O)Nc2cccc3c2OC(c2nnn[nH]2)CO3)cc1 (centres undefined) , IC50: 0.12

* * *

Target: Cysteinyl leukotriene receptor (Homo sapiens, UniProt Q9Y271+Q9NS75)
Experiment: Inhibition of LTC4 induced smooth muscle contraction of guinea pig ileum
Format: functional, tissue-based, Cavia porcellus
Conditions: target entry is the homologue from another species
measure: IC50 (nM)
Expressed in nM, but write only the number.

Examples from the recorded data:
# compound, uom, IC50
measured = [
    ("CCCCCC#CCOc1ccc(C(=O)Nc2cccc3c(=O)cc(-c4nn[nH]n4)oc23)cc1", "nM", 0.14),
    ("CCCC/C=C/COc1ccc(C(=O)Nc2cccc3c(=O)cc(-c4nn[nH]n4)oc23)cc1", "nM", 0.031),
    ("CCCCCc1ccc(/C=C/C(=O)Nc2cccc3c2OC(c2nnn[nH]2)CO3)cc1 (configuration not stated)", "nM", 370),
    ("CCCCCCc1ccc(/C=C/C(=O)Nc2cccc3c(=O)cc(-c4nn[nH]n4)oc23)cc1", "nM", 32),
    ("CCCCc1ccc(/C=C/C(=O)Nc2cccc3c2OC(c2nnn[nH]2)CO3)cc1 (configuration not stated)", "nM", 220),
]

According to the records, this compound `CCCCCc1ccc(/C=C/C(=O)Nc2cccc3cc(-c4nn[nH]n4)oc23)cc1` displays IC50 of 3100

The value of IC50 measured for the compound CCCCCc1ccccc1C(=O)Nc1cccc2c1OC(c1nnn[nH]1)CO2 (configuration not stated) turned out to be 40000

Reported IC50 ( C=CCCC/C=C/COc1ccc(C(=O)Nc2cccc3c2OC(c2nnn[nH]2)CO3)cc1 (configuration not stated) ) = 1.1

Kindly note the recorded IC50 for `C=CCCCCCCOc1ccc(C(=O)Nc2cccc3c(=O)cc(-c4nn[nH]n4)oc23)cc1` , which is 0.11

Kindly note the recorded IC50 for `C=CCCC/C=C/COc1ccc(C(=O)Nc2cccc3c(=O)cc(-c4nn[nH]n4)oc23)cc1` , which is 0.16

The reported value for `CCCCC/C=C/COc1ccc(C(=O)Nc2cccc3c(=O)cc(-c4nn[nH]n4)oc23)cc1` in terms of IC50 is 0.06

Measured IC50, CCCCCOc1ccccc1C(=O)Nc1cccc2c1OC(c1nnn[nH]1)CO2 (configuration not stated) : 9400
